What GI50 was measured for each of the following?
Tested on: MDA-MB-231
assay details: NCI tumour cell line growth inhibition, 48 h
Activity calls are given as the source filed them. No stated cut-off is given here; in the data, active = GI50 up to about 1.1 µM and inactive = higher.

Reference set, count: 4
molecule	obs value
Cc1cc2nc(N3C(=O)/C(=C/Cc4ccco4)N=C3c3ccccc3)sc2cc1C	51.5 µM (inactive)
CN(CCSCCN(C)C(=O)OC(C)(C)C)C(=O)OC(C)(C)C	> 100 µM (inactive)
CC(=O)Nc1ccc(OC/C(N)=N/NC(=O)c2ccncc2)cc1	> 100 µM (inactive)
CN1CCCOC(c2ccc(Cl)cc2)O1 (stereo unspecified)	> 100 µM (inactive)

Could you report GI50 for every entry in the following list?
1. Oc1nnnc2c1sc1ncccc12
2. Cn1c(-c2cccs2)cc(-c2cccs2)c1-c1ccsc1

["68.2 µM (inactive)", "> 100 µM (inactive)"]
